// provenance: PubChem BioAssay (NCI)

Assay: NCI Yeast Anticancer Drug Screen. Data for the bub3 strain (AID 167)
Details: S. cerevisiae bub3 mutant strain, at 5.0 µM (retest, dose inferred, filed as 0.5)
Method: Growth inhibition of yeast strains with defined genetic alterations is measured as a screen for potential anti-cancer activity. Selected strains with alterations in DNA damage repair or cell cycle control were exposed to compounds and growth inhibition was measured relative to vehicle treated controls. The strain used in this assay is bub3
Compounds without any hit were thinned out: in the full panel of roughly 79,000, 15% have a hit. Active and inactive are the calls of the source. Rule as the data show it: active = growth inhibition above about 70%; inactive = the rest.
Valid outcomes are listed here; reply with one: active, inactive

Consider the following illustrative entries.
CC(C)OP(=O)(OC(C)C)C(=NCCO)NNc1ccc([N+](=O)[O-])cc1    inactive
CCCCN(CCC#N)c1ccc(/C=C/c2ccnc3ccccc23)cc1    inactive
O=C(Nn1c(-c2ccccc2)nc2ccccc2c1=O)c1ccc(CS)cc1    inactive
COc1cc2c(cc1O)[C@H](C)C(c1ccccc1OC)O2 (some centres not stated)    inactive
O=S(=O)(NNc1ccccc1)c1ccccc1    inactive

Which outcome did this test record for the compound CCCCCCC1OCC(O)C(OCCCC)O1 (configuration not stated) ?
inactive

Could you kindly confirm the outcome this assay logged for "Nc1ccc2c(c1)C(=O)c1c(F)cccc1-2" ?
inactive

Record lookup: outcome of this test for "c1ccc2c(c1)ccn2CCc1c[nH]c2ccccc12" ?
inactive

Fill in: this test's call for "Cc1cc(O)c(C(C)C)cc1SC#N" is ___
active

Hi team, can someone confirm the assay call for "Cc1ccc(Nc2n[nH]c(=S)s2)c(C)c1" ?
inactive

Please let me know the test result on file for "O=C(NOC(=O)c1ccc([N+](=O)[O-])cc1)c1ccc(Cl)cc1" .
inactive

For "O=C1c2ccccc2C(=O)c2sc(Nc3ccccc3Cl)nc21" , which call appears in the assay record?
active

What is the recorded call for this compound in the test? "COc1ccc2nc(CCc3ccccc3)ccc2c1"
inactive

Dear all, I need the recorded test outcome for COc1cc(OC)c(CSCC(NC(=O)OCC2c3ccccc3-c3ccccc32)C(=O)O)c(OC)c1 (configuration not stated) , thank you.
inactive
